Sourced from ChEMBL document CHEMBL1201862

Test system: U-251
protocol.notes: NCI tumour cell line growth inhibition, 48 h
Counter-ions that a name gives are not always drawn. Calls of active or inactive are those of the source. No stated cut-off is given here; in the data, active = GI50 up to about 1.1 µM and inactive = higher.
# reported GI50; entries follow
reported.metric: GI50

{"compound": "C=CCN(c1cc(OCc2ccccc2)c2[nH]cc(C)c2c1)S(C)(=O)=O", "result": "46.7 µM (inactive)"}
{"compound": "COc1ccccc1NS(=O)(=O)c1ccc2ncn(NS(=O)(=O)c3ccc(Cl)cc3)c(=O)c2c1", "result": "> 100 µM (inactive)"}
{"compound": "CC[C@@H]1C(=O)OC[C@@H]1Cc1cncn1C [PILOCARPINE HYDROCHLORIDE]", "result": "> 100 µM (inactive)"}
{"compound": "Cc1cc2c(cc1C)[n+]([O-])c(C(=O)C/C(=N/NC(=O)CC#N)C(=O)Nc1ccccc1C(F)(F)F)c(C)[n+]2[O-]", "result": "49.5 µM (inactive)"}
{"compound": "C[C@@H]1S[C@H](c2c(F)cccc2Cl)n2c1nc1ccccc12", "result": "10.8 µM (inactive)"}
{"compound": "CCCCCCc1cc2cc(-c3cn4ccccc4n3)c(=O)oc2cc1O", "result": "3.56 µM (inactive)"}
{"compound": "O=C1C(NCCF)=C(Cl)C(=O)c2ncccc21", "result": "0.689 µM (active)"}
{"compound": "N#CCc1ccc(C(C#N)/C(CCCC(=O)Nc2cccc([N+](=O)[O-])c2)=N/NC(N)=S)cc1 (centres undefined)", "result": "> 100 µM (inactive)"}
{"compound": "O=C(/C=C1\\C[C@H]2C=Nc3ccccc3C(=O)N2C1)NCCCCNC(=O)/C=C1\\C[C@H]2C=Nc3ccccc3C(=O)N2C1", "result": "3.37 µM (inactive)"}

---

# reported GI50; entries follow
Test system: SK-MEL-2
protocol.notes: NCI tumour cell line growth inhibition, 48 h
The source made the active and inactive calls. No stated cut-off is given here; in the data, active = GI50 up to about 1.1 µM and inactive = higher.

{"compound": "CCN(CC)C(=O)COc1ccc(Br)cc1Br", "target.or.test.system": "SK-MEL-2", "GI50": "> 100 µM (inactive)"}
{"compound": "CCCCCCCCCc1cc(=O)c2c(O)cccc2o1", "target.or.test.system": "SK-MEL-2", "GI50": "23.2 µM (inactive)"}
{"compound": "CCOc1ccc(NC(=O)C2=C(C)NC(C)=C(C(=O)Nc3ccc(OCC)cc3)C2c2ccccc2)cc1", "target.or.test.system": "SK-MEL-2", "GI50": "56.8 µM (inactive)"}
{"compound": "CC1(C)OP(=O)(c2ccccc2)C=C1Sc1ccc([N+](=O)[O-])cc1[N+](=O)[O-] (stereo not given)", "target.or.test.system": "SK-MEL-2", "GI50": "> 100 µM (inactive)"}
{"compound": "NS(=O)(=O)c1ccc(NC(=O)c2cc([N+](=O)[O-])cc([N+](=O)[O-])c2)cc1", "target.or.test.system": "SK-MEL-2", "GI50": "34.1 µM (inactive)"}
{"compound": "CCCc1cn2c(/C=N/NC(=N)N)c(-c3cccc([N+](=O)[O-])c3)nc2s1", "target.or.test.system": "SK-MEL-2", "GI50": "2.1 µM (inactive)"}
{"compound": "c1ccc(/C(=N\\Nc2nc3ccccc3s2)c2ccccn2)cc1", "target.or.test.system": "SK-MEL-2", "GI50": "4.08 µM (inactive)"}
{"compound": "CC(=O)C(=[N+]=[N-])C(=O)N(C)CCC#N", "target.or.test.system": "SK-MEL-2", "GI50": "> 10 µM (inactive)"}
{"compound": "CCOC(=O)c1c(NC(=O)c2cccs2)sc2c1CCCC2", "target.or.test.system": "SK-MEL-2", "GI50": "42 µM (inactive)"}
{"compound": "O=C(O)[C@@H](NS(=O)(=O)c1ccc([N+](=O)[O-])cc1)c1ccccc1", "target.or.test.system": "SK-MEL-2", "GI50": "> 100 µM (inactive)"}

---

System: NCI/ADR-RES
protocol.notes: NCI tumour cell line growth inhibition, 48 h
Calls of active or inactive are those of the source. Rule as the data show it: active = GI50 up to about 1.1 µM and inactive = higher.
reported.metric: GI50

{"compound": "CC1C2CCC3C(O)C2(CC(O)C2(O)C1CC(O)C2(C)C)CC3(C)O (stereo unspecified)", "result": "> 100 µM (inactive)"}
{"compound": "C[N+](C)(C)[BH-](Br)C(O)O (stereo unspecified)", "result": "> 100 µM (inactive)"}
{"compound": "COC(=O)/C(C)=N/N=C(\\S)SC", "result": "30 µM (inactive)"}
{"compound": "OC[C@@H](O)[C@H](O)[C@H](O)[C@@H](O)C1SCCCS1", "result": "> 100 µM (inactive)"}
{"compound": "NNc1ncc2c(n1)-c1ccccc1OC2", "result": "28 µM (inactive)"}
{"compound": "O=C(OCc1ccc([N+](=O)[O-])cc1)N1c2ccccc2[C@@]23O[C@]24CCC[C@H]3C#C/C=C\\C#C[C@H]14", "result": "43.6 µM (inactive)"}
{"compound": "O=c1c2cc(I)ccc2nc(Sc2ncccc2[N+](=O)[O-])n1Cc1ccccc1", "result": "17.2 µM (inactive)"}
{"compound": "COC1/C=C\\C=C(/C)C(=O)NC2=CC(=O)C(NCCCl)=C(CC(C)CC(OC)C(O)C(C)/C=C(/C)C1OC(N)=O)C2=O (stereo unspecified)", "result": "10.6 µM (inactive)"}
{"compound": "COc1ccc(NC/C=C/C(=C/COC(C)=O)OC(C)=O)cc1", "result": "2.59 µM (inactive)"}
{"compound": "C1CC2CN(CCCN3CCOCC3)C(C1)O2 (stereo unspecified)", "result": "> 100 µM (inactive)"}
{"compound": "CNC(=O)N1N[C@H](c2ccccc2)[C@@H]1c1ccccc1.OB(O)O", "result": "15.4 µM (inactive)"}

---

System: 786-0
protocol.notes: NCI tumour cell line growth inhibition, 48 h
The source made the active and inactive calls. No stated cut-off is given here; in the data, active = GI50 up to about 1.1 µM and inactive = higher.
reported.metric: GI50

{"compound": "CN(Cc1ccccc1)Cn1ccnc1", "reported.metric": "GI50", "result": "72.9 µM (inactive)"}
{"compound": "O=C(/C=C\\c1ccc(Cl)c(Cl)c1)c1ccc(Cl)cc1Cl", "reported.metric": "GI50", "result": "17.4 µM (inactive)"}
{"compound": "CC1(C)OCC(C2OC(On3nnc4ccc(Cl)cc43)C3OC(C)(C)OC23)O1 (stereo unspecified)", "reported.metric": "GI50", "result": "> 100 µM (inactive)"}
{"compound": "C[C@]12CC[C@@H]3c4ccc(O)cc4CC[C@H]3[C@@H]1C/C(=C\\c1ccc(C#N)cc1)C2=O", "reported.metric": "GI50", "result": "35.7 µM (inactive)"}
{"compound": "CC(C)N(C(=O)C12C3C4C1C1C2C3C41C(=O)O)C(C)C (stereo unspecified)", "reported.metric": "GI50", "result": "> 100 µM (inactive)"}
{"compound": "CC[P+](C)(C)CC", "reported.metric": "GI50", "result": "> 100 µM (inactive)"}

---

# reported GI50; entries follow
System: KM-20L2
protocol.notes: NCI tumour cell line growth inhibition, 48 h
The source made the active and inactive calls. No stated cut-off is given here; in the data, active = GI50 up to about 1.1 µM and inactive = higher.
reported.metric: GI50

{"compound": "Nc1nc(CCC(=O)Nc2cccc(C(F)(F)F)c2)cc(-c2cccc3ccccc23)n1", "result": "> 100 µM (inactive)"}
{"compound": "CC1CC(c2cccc3c2OCO3)=Nc2ccccc2S1 (stereo not given)", "result": "> 100 µM (inactive)"}
{"compound": "Cc1nc(Nc2ccccc2)sc1C(=O)NNc1ccc([N+](=O)[O-])cc1[N+](=O)[O-]", "result": "24.7 µM (inactive)"}
{"compound": "CC(=O)c1cccc(N2COC(C)(C)c3nc4ccccc4n3C2)c1", "result": "> 100 µM (inactive)"}
{"compound": "Cc1ccc(S(=O)(=O)SCc2ccccc2CSS(=O)(=O)c2ccc(C)cc2)cc1", "result": "78.3 µM (inactive)"}
{"compound": "O=C1C(Br)=C[C@H]2C3C=CC(Br)(C3=O)[C@@H]12 (stereo not given in full)", "result": "4.84 µM (inactive)"}
{"compound": "N#CCc1ccc(/C(C#N)=C2/OC(=N)C(c3ccc(CC#N)cc3)C2=O)cc1 (stereo not given)", "result": "> 100 µM (inactive)"}
{"compound": "O=C(C(=O)c1ccc(Cc2ccc(C(=O)C(=O)c3ccccc3)cc2)cc1)c1ccccc1", "result": "> 100 µM (inactive)"}
{"compound": "COc1ccc(C2SCc3nc4ccccc4n32)cc1 (stereo not given)", "result": "2.4 µM (inactive)"}
{"compound": "O=C(/N=c1/[nH]/c(=N/C(=O)c2ccccc2)ss1)c1ccccc1", "result": "29.5 µM (inactive)"}
